Read-out: Lipase C (LIPC), LIPC (gene 3990)
test-summary: LTEA_HepaRG_LIPC: Life Technologies and Expression Analysis (LTEA) Assay for Lipase C (LIPC) using HepaRG (AID 2283514)
measurement-parameters: mRNA level, 48 h; actives raise or lower the signal
Calls of active or inactive are those of the source. The calls were made as follows: active = hit-call score of the fitted dose curve at least 0.9, where 1 is the maximum; inactive = score below 0.9.
Parameter call: string, one of 1.0 (active), 0.0 (inactive)

-- ask Dear all, I need the recorded test outcome for CCC(C)(C)c1ccc(O)cc1 , thank you.
-- reply 0.0

-- ask Dear all, I need the recorded test outcome for CCOP(=S)(OCC)SCSCC , thank you.
-- reply 0.0

-- ask Dear all, I need the recorded test outcome for O=P1(N(CCCl)CCCl)NCCCO1 (stereo not given) , thank you.
-- reply 0.0

-- ask Dear all, I need the recorded test outcome for Nc1cc2c3c(c1)C(c1ccccc1)=N[C@@H](NC(=O)c1cccnc1)C(=O)N3CC2 , thank you.
-- reply 0.0

-- ask Dear all, I need the recorded test outcome for Cc1cccc(N)c1 , thank you.
-- reply 0.0

-- ask Dear all, I need the recorded test outcome for CSC(C)(C)C=NO , thank you.
-- reply 0.0

---

Read-out: Paternally Expressed 10 (PEG10), PEG10 (gene 23089)
test-summary: LTEA_HepaRG_PEG10: Life Technologies and Expression Analysis (LTEA) Assay for Paternally Expressed 10 (PEG10) using HepaRG (AID 2283520)
measurement-parameters: mRNA level, 48 h; actives raise or lower the signal
Activity calls are given as the source filed them. The calls were made as follows: active = hit-call score of the fitted dose curve at least 0.9, where 1 is the maximum; inactive = score below 0.9.
Parameter call: string, one of active, inactive

Take a look at these entries with their results.
-- ask Dear all, I need the recorded test outcome for CC(Cl)(Cl)C(=O)O , thank you.
-- reply inactive

-- ask Dear all, I need the recorded test outcome for O=[N+]([O-])c1ccc(Cl)c(Cl)c1 , thank you.
-- reply inactive

-- ask Dear all, I need the recorded test outcome for CCC1(c2ccccc2)C(=O)N=C(O)NC1=O (stereo unspecified) , thank you.
-- reply inactive

-- ask Dear all, I need the recorded test outcome for ClC(Cl)c1ccccc1 , thank you.
-- reply inactive

-- ask Dear all, I need the recorded test outcome for CSC(C)(C)C=NO , thank you.
-- reply inactive

-- ask Dear all, I need the recorded test outcome for Cc1ccc(O)cc1C , thank you.
-- reply inactive

-- ask Dear all, I need the recorded test outcome for CCCCN(CCCC)N=O , thank you.
-- reply inactive

-- ask Dear all, I need the recorded test outcome for CC(Cc1ccc(OCC(=O)O)cc1)NCC(O)c1csc(C(F)(F)F)n1 (stereo unspecified) , thank you.
-- reply active

More entries:
-- ask Dear all, I need the recorded test outcome for [N-]=[N+]=[N-] , thank you.
-- reply inactive

-- ask Dear all, I need the recorded test outcome for Nc1ccc(Cl)cc1 , thank you.
-- reply inactive

-- ask Dear all, I need the recorded test outcome for CCCCc1ccccc1 , thank you.
-- reply inactive

-- ask Dear all, I need the recorded test outcome for CCOc1ccc(C(C)(C)COCc2cccc(Oc3ccccc3)c2)cc1 , thank you.
-- reply inactive

-- ask Dear all, I need the recorded test outcome for CN(C)C(=O)Cl , thank you.
-- reply inactive

-- ask Dear all, I need the recorded test outcome for CC(C)(C)c1ccc(O)cc1 , thank you.
-- reply inactive

-- ask Dear all, I need the recorded test outcome for Cc1ccc(N)cc1N , thank you.
-- reply inactive

-- ask Dear all, I need the recorded test outcome for c1cc2c3c(cccc3c1)CC2 , thank you.
-- reply inactive

---

test-summary: ATG_M_19_TRANS: Attagene TRANS-FACTORIAL HepG2 Assay for M19 Transcription Factor (Internal Marker) (AID 2282974)
measurement-parameters: HepG2 Attagene TRANS-FACTORIAL M19 internal marker reporter
Inconclusive results are not listed. Active and inactive are the calls of the source. Rule for the calls: active = hit-call score of the fitted dose curve at least 0.9, where 1 is the maximum; inconclusive = response in the unintended direction; inactive = score below 0.9.
parameter-measured: outcome

Sample answers from the record:
# outcome of C/C(=N\NC(=O)Nc1cc(F)cc(F)c1)c1ncccc1C(=O)O = inactive

# outcome of c1ccc2c(c1)Nc1ccccc1S2 = inactive

# outcome of COP(=O)(O)OC = inactive

# outcome of O=[N+]([O-])c1ccc(Cl)c(Cl)c1 = inactive

# outcome of c1cc2c3c(cccc3c1)CC2 = inactive

# outcome of CCCCN(CC)C(=O)SCCC = inactive

More entries:
# outcome of CCCCN(CCCC)SN(C)C(=O)Oc1cccc2c1OC(C)(C)C2 = inactive

# outcome of ClC(Cl)c1ccccc1 = inactive

# outcome of CC(C)Nc1ccc(Nc2ccccc2)cc1 = inactive

# outcome of COP(N)(=S)OC = inactive

# outcome of OCC(F)(F)OC(F)(F)C(F)(F)OC(F)(F)C(F)(F)OC(F)(F)F = inactive

# outcome of CC1(C)CN=C(NN=C(/C=C/c2ccc(C(F)(F)F)cc2)/C=C/c2ccc(C(F)(F)F)cc2)NC1 = inactive

# outcome of Cc1ccc([N+](=O)[O-])cc1C = inactive

---

Read-out: CYP2C8 (gene 1558)
test-summary: LTEA_HepaRG_CYP2C8: Life Technologies and Expression Analysis (LTEA) Assay for CYP2C8 using HepaRG (AID 2283483)
measurement-parameters: mRNA level, 48 h; actives raise or lower the signal
The source made the active and inactive calls. How the source made its calls: active means hit-call score of the fitted dose curve at least 0.9, where 1 is the maximum; inactive means score below 0.9.
Parameter call: string, one of active, inactive

Take a look at these entries with their results.
-- ask Dear all, I need the recorded test outcome for CCOP(=S)(OCC)SCSCC , thank you.
-- reply inactive

-- ask Dear all, I need the recorded test outcome for CCOP(=S)(Oc1ccc([N+](=O)[O-])cc1)c1ccccc1 (stereo not given) , thank you.
-- reply active

-- ask Dear all, I need the recorded test outcome for c1ccc2c(c1)Nc1ccccc1S2 , thank you.
-- reply inactive

-- ask Dear all, I need the recorded test outcome for COCCOCCO , thank you.
-- reply inactive

-- ask Dear all, I need the recorded test outcome for ClC(Cl)c1ccccc1 , thank you.
-- reply inactive

Query compound follows.
-- ask Dear all, I need the recorded test outcome for CCOS(=O)(=O)OCC , thank you.
-- reply inactive

---

test-summary: BSK_4H_SRB: Viability Assessment in the BioMAP Diversity Plus: 4H Assay (AID 2283027);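 also: cells exposed to compound for 24 h before staining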
measurement-parameters: primary human endothelial cells (HUVEC)
Calls of active or inactive are those of the source. How the source made its calls: active means hit-call score of the fitted dose curve at least 0.9, where 1 is the maximum; inactive means score below 0.9.
Parameter call: string, one of active, inactive

-- ask Dear all, I need the recorded test outcome for CCOP(=S)(OCC)SCn1nnc2ccccc2c1=O , thank you.
-- reply inactive

-- ask Dear all, I need the recorded test outcome for Cc1ccc2c(c1N)C(=O)c1ccccc1C2=O , thank you.
-- reply inactive

More entries:
-- ask Dear all, I need the recorded test outcome for C=CC(=O)OCC(CC)(COC(=O)C=C)COC(=O)C=C , thank you.
-- reply active

-- ask Dear all, I need the recorded test outcome for O=c1ssc(Cl)c1Cl , thank you.
-- reply active

-- ask Dear all, I need the recorded test outcome for Nc1ccc([N+](=O)[O-])cc1Cl , thank you.
-- reply inactive

-- ask Dear all, I need the recorded test outcome for CCOP(=S)(OCC)SCSCC , thank you.
-- reply inactive

-- ask Dear all, I need the recorded test outcome for Cc1cccc(N)c1 , thank you.
-- reply inactive

-- ask Dear all, I need the recorded test outcome for NC(=O)C(F)(F)C(F)(F)F , thank you.
-- reply inactive

-- ask Dear all, I need the recorded test outcome for O=C(O)C(F)(OC(F)(F)C(F)(F)C(F)(F)F)C(F)(F)F (stereo unspecified) , thank you.
-- reply inactive

-- ask Dear all, I need the recorded test outcome for N#Cc1c(-c2ccc(Cl)cc2)[nH]c(C(F)(F)F)c1Br , thank you.
-- reply active

---

Read-out: E-selectin (Homo sapiens) (UniProt P16581)
Sequence (P16581 whole entry, looked up): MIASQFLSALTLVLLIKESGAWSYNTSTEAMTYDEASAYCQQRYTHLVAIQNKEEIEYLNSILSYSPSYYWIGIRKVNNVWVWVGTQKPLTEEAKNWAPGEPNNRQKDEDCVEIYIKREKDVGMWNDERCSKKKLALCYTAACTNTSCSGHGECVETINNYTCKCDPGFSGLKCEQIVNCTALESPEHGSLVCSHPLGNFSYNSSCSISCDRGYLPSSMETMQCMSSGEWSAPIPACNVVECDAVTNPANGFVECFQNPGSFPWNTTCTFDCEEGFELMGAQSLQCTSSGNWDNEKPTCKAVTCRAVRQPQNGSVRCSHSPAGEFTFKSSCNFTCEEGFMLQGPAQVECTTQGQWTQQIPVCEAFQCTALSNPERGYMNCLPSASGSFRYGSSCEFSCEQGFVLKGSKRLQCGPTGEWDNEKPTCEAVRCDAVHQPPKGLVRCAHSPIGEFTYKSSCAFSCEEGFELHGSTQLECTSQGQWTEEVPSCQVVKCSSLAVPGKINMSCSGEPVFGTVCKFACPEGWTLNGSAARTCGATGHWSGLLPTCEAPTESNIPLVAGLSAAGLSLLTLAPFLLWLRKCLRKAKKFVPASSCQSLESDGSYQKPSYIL
test-summary: BSK_SAg_Eselectin: BioMAP Diversity Plus: SAg Assay for Eselectin Biomarker Activity (AID 2283091)
measurement-parameters: primary human HUVEC with PBMC; actives raise or lower the signal
Activity calls are given as the source filed them. The calls were made as follows: active = hit-call score of the fitted dose curve at least 0.9, where 1 is the maximum; inactive = score below 0.9.
Parameter call: string, one of 1 for active, 0 for inactive

Take a look at these entries with their results.
-- ask Dear all, I need the recorded test outcome for O=C(O)C(F)(F)OC(F)(F)C(F)(F)OC(F)(F)C(=O)O , thank you.
-- reply 0

-- ask Dear all, I need the recorded test outcome for O=C(O)C(Cl)Cl , thank you.
-- reply 0

-- ask Dear all, I need the recorded test outcome for CCCCc1ccccc1 , thank you.
-- reply 0

-- ask Dear all, I need the recorded test outcome for CCCCN(CCCC)SN(C)C(=O)Oc1cccc2c1OC(C)(C)C2 , thank you.
-- reply 1

-- ask Dear all, I need the recorded test outcome for CC(C)(C)c1ccccc1OP(=O)(Oc1ccccc1)Oc1ccccc1 , thank you.
-- reply 1

Query compound follows.
-- ask Dear all, I need the recorded test outcome for CCOP(=S)(OCC)SCSCC , thank you.
-- reply 0

---

test-summary: BSK_3C_TissueFactor: BioMAP Diversity Plus: 3C Assay for Tissue Factor Biomarker Activity (AID 2282997)
measurement-parameters: BioMAP 3C HUVEC, tissue factor biomarker readout; actives raise or lower the signal
Calls of active or inactive are those of the source. The calls were made as follows: active = hit-call score of the fitted dose curve at least 0.9, where 1 is the maximum; inactive = score below 0.9.
Parameter call: string, one of 1 (yes) = active, 0 (no) = inactive

Take a look at these entries with their results.
-- ask Dear all, I need the recorded test outcome for CCCCCCCc1ccc(O)cc1 , thank you.
-- reply 1 (yes)

-- ask Dear all, I need the recorded test outcome for CSC(C)(C)C=NO , thank you.
-- reply 0 (no)

-- ask Dear all, I need the recorded test outcome for [N-]=[N+]=[N-] , thank you.
-- reply 0 (no)

-- ask Dear all, I need the recorded test outcome for NC(=O)C(F)(F)C(F)(F)F , thank you.
-- reply 0 (no)

-- ask Dear all, I need the recorded test outcome for ClC(Cl)c1ccccc1 , thank you.
-- reply 0 (no)

-- ask Dear all, I need the recorded test outcome for CC(O)C(F)(F)C(F)(F)F (stereo unspecified) , thank you.
-- reply 0 (no)

-- ask Dear all, I need the recorded test outcome for CCOP(=S)(Oc1ccc([N+](=O)[O-])cc1)c1ccccc1 (stereo unspecified) , thank you.
-- reply 0 (no)

-- ask Dear all, I need the recorded test outcome for CC(C)(C)c1ccc(O)cc1 , thank you.
-- reply 0 (no)

More entries:
-- ask Dear all, I need the recorded test outcome for Cc1ccc(O)cc1C , thank you.
-- reply 0 (no)

-- ask Dear all, I need the recorded test outcome for CCOP(=S)(OCC)SCSc1ccc(Cl)cc1 , thank you.
-- reply 1 (yes)

-- ask Dear all, I need the recorded test outcome for CC(Cl)(Cl)C(=O)O , thank you.
-- reply 0 (no)

-- ask Dear all, I need the recorded test outcome for Cc1ccc2c(c1N)C(=O)c1ccccc1C2=O , thank you.
-- reply 1 (yes)
